IC50 values for the compounds below.
Test: Inhibition of rabbit GSKbeta assessed as [32P]-phosphorylation of substrate after 1 hr by scintillation counting
Parameters: species or system Oryctolagus cuniculus
A number alone suffices; assume µM.

Before answering, review these 2 worked examples.
Fill in IC50 for record CCCCC/C=C/C(O)CCCCCCCCCCCCCC(=O)OC(C)C[C@H](O)[C@H](O)C[C@H](O)CCC(=O)NCCS(=O)(=O)O (mixture of isomers) 6.8

Fill in IC50 for record CCCCC/C=C/C(O)CCCCC/C=C/C(O)CCCCCCCC(=O)OC(C)C[C@H](O)[C@H](O)C[C@H](O)CCC(=O)NCCS(=O)(=O)O (mixture of isomers) 12.5

Query compound follows.
Fill in IC50 for record CCCCC/C=C/C(O)CCCCC/C=C/C(CCCCCCCC(=O)OC(C)C[C@H](O)[C@H](O)C[C@H](O)CCC(=O)NCCS(=O)(=O)O)OC(C)=O (stereo partly drawn) 6.8
